- assay notes: physchem
- Format: physicochemical
- condition context: fassif, thermodynamic from solid, Thermodynamic solubility in FaSSIF
observed property: solubility thermodynamic

In: Sample O=C(NO)c1cnc(N2C[C@@H]3[C@H](C2)[C@H]3NCc2ccc3cc(F)ccc3n2)nc1 [Mesylate Form 1] — what was its solubility thermodynamic?
Out: 1900 µg/mL

###

- assay notes: physchem
- Assay type: physicochemical
- condition context: fassgf or other biorelevant, thermodynamic from solid, Thermodynamic solubility in FaSSGF
observed property: solubility thermodynamic

In: Item O=C(NO)c1cnc(N2C[C@@H]3[C@H](C2)[C@H]3NCc2ccc3cc(F)ccc3n2)nc1 [Mesylate Form 1] has what recorded solubility thermodynamic?
Out: 21 mg/mL

Cited source: patent US12012396B2
